experiment: yeast display, Sf9 membrane polyspecificity reagent, FACS + sequencing; frameworks hold sequencing errors

>  <seq-string>
QVQLVESGGGLVQAGGSLRLSCAASGRNFKHYAMGWYRQAPGKERELVAAISYSGGSPKYADSVKGRFTISRYNAMNTVYLQMNSLKPEDTAVYYCAARFFTPFRFSYDYWGQGTQVTVSS

>  <polyreactivity (PSR sort gate)>
high polyreactivity

$$$$
>  <seq-string>
QVQLVESGGGLVQAGGSLRLSCAASGFIFRYYTMGWYRQAPRKERELVASITSGGSTYYADSVKGRFTSSRDNAKNTVYLQMNCLKPEDTAVYSCAKHRDVLWRYKYWGQGTQVTVSS

>  <polyreactivity (PSR sort gate)>
high polyreactivity

$$$$
>  <seq-string>
QVQLVESGGGLVQAGGSLRLSCAASGFTFRGYAMGWYRQAPGKERELVAAISKRGGSTYYADSVKGRFTISRDNAKNTVYLQMNSLKPEDTAVYYCNADYYIVGPPYAPTREDYWGQGTQVTVSS

>  <polyreactivity (PSR sort gate)>
high polyreactivity

$$$$
>  <seq-string>
QVQLVESGGGLVQAGGSLRLSCAASGLIFSGYDMGWYRQAPGKERELVAAITWSGGRTYADSVKGRFTISRDNAKNTVYLQMNSLKPEDTAVYYCNADAYIDYWPYTWDYDYWGQGTQVTVSS

>  <polyreactivity (PSR sort gate)>
high polyreactivity

$$$$
>  <seq-string>
QVQLVESGGGLVQAGGSLRLRCAASGFIFARYAMGWYRQAPGKERELVAAITWSGDSTYYAYSVKGRFTISRDNAKYTVYLQMNSLKPEDTAVYYCYPVSGYAKYDYWGQGTQVTVSS

>  <polyreactivity (PSR sort gate)>
low polyreactivity

$$$$
>  <seq-string>
QVQLVESGGGLVQAGGSLRLSCAASGSIFSTYTMGWYRQAPGKERELVAAITRSGGSTYYADSVKGRFTISRDNAKNTVYLQMNSLKPEDTAVYYCAARWKFPSSFYYWGQGTQVTVSS

>  <polyreactivity (PSR sort gate)>
high polyreactivity

$$$$
>  <seq-string>
QVQLVESGGGLVQAGGSLRLSCAASGTNGMGWYRQAPGKERELVAAISGSGGSTYYADSVKGRFTISRDNAKNTVYLQMNSLKPEDTAVYYGAADSIQYTARPYDYWGQGTQVTVSS

>  <polyreactivity (PSR sort gate)>
low polyreactivity

$$$$
>  <seq-string>
QVQLVESGGGLVQAGGSLRLSCAASGFTFQPYAMGWYRQAPGKERELVAAINWSSGRTYYADSVKGRFTISRDNAKNTVYLEMNCLKPEDTAVYYCNTRSTLGYYWGQGTQVTVSS

>  <polyreactivity (PSR sort gate)>
high polyreactivity

$$$$
>  <seq-string>
QVQLVESGGGLVQAGGSLRLSCAASGRIVRNAMGWYRQSPGKERELVAAISRSGGSTYYADSVKGRFTISRDNAKNTVYLQMNSLKPEDTAVYYCAKRSTSQSLQGEYWGQGTQVTVSS

>  <polyreactivity (PSR sort gate)>
high polyreactivity

$$$$
>  <seq-string>
QVQLVESGGRLVQAGGSLRLSCAASGFTFGHYAMGWSRPARGKEWELVAAIRWSGGSTYYADSVKGRFTISRDNAKNTVYLQMNSLKPEDTAVYYCAARRFDGFEYDYWGDGTQVTVSS

>  <polyreactivity (PSR sort gate)>
low polyreactivity

$$$$
>  <seq-string>
QVQLVESGGGLVQAGGSLRLSCAASGSIIRTYVMGWYRQAPGKERELVAAITYSGGRTYYADSVKGRFTISRDNAKNTVYLQMNSLKPEDTAVYYCAARSPRPSAIYDYWGQGTQVTVSS

>  <polyreactivity (PSR sort gate)>
high polyreactivity

$$$$

---

assay: yeast display, Sf9 membrane polyspecificity reagent, FACS + sequencing; frameworks hold sequencing errors

>  <seq-string>
QVQLVESGGGLVQAGGSLRLSCAASGSIFFSYAMGWYRPAPGKERELVAGINWSGGSTYADSVKGRFTLSRDNAKNTVYLQINSLKPEDTAVYYCAAKYYSERSRYHYWGQGTQVTVSS

>  <polyreactivity (PSR sort gate)>
low polyreactivity

$$$$
>  <seq-string>
QVQLVESGGGLVQAGGSLRLSCASSGSTFYNNAMGWYRPAPGKDRELVAAISSGGGTYYADSVKGRFTISRDNAKNTVYLQMNSLKPEDTAVYYCAADFANTTHWGRIKRYDYWGQGTQVTVSS

>  <polyreactivity (PSR sort gate)>
low polyreactivity

$$$$
>  <seq-string>
QVQLVESGGGLVQAGGSLRLSCAASGYSFSPNAMGWYRQEPGKDRELVAAISSGVSTDYADSVKGRFSISRDNAKNTVYLQMNSLKPEDTAVYYCAADDQYRVTLGYVYWGQGTQVTVSS

>  <polyreactivity (PSR sort gate)>
low polyreactivity

$$$$

---

assay: yeast display, Sf9 membrane polyspecificity reagent, FACS + sequencing; frameworks hold sequencing errors

>  <seq-string>
QVQLVESGGGLVQAGGSLRLSCAASGRTFRGNAMGWYRQAPGKERELVATINSGASTNYADSVKGRFTISRDNAKNPVYLQMNSLNPEDTAVYYCAAVKYFRWKYNYWGQGTQVTVSS

>  <polyreactivity (PSR sort gate)>
high polyreactivity

$$$$
>  <seq-string>
QVQLVESGGGLVQAGGSLRLSCAASGSIFDYNAMGWYRQAPGKERELVAAITYSGGTTYADSVKGRFTISRDNAKNTVYLQMNSLKPEDTAVYYCAATSYARFAYYYWGQGTQVTVSS

>  <polyreactivity (PSR sort gate)>
low polyreactivity

$$$$
>  <seq-string>
QVQLVESGGGLVQAGGSLRLSCAASGIIFRLNTMGWYRQAPGKEREFVAAITSGGSTHYADSVKGRFTISRDNAKNTVYLQMNSLKPEDTAVYYCAAGHRANYWAWHFYYPGDYWGQGTQVTVSS

>  <polyreactivity (PSR sort gate)>
low polyreactivity

$$$$
>  <seq-string>
QVQLVESVVGLVQAGGSLRLSCAASGRTFRVNAMGWYRQAPGKERELVAAITWSGGTTYYADSVKGRFTISRDNAKNTVYLQMNSLKPEDTAVYYCAADRFWYGSWYDYWGHGTQVTVSS

>  <polyreactivity (PSR sort gate)>
high polyreactivity

$$$$
>  <seq-string>
QVQLVESGGGLVQAGGSLLLSCAASGFTFSYYAMGWYRPAPGKERELVAAINWNGGSTYYADSVKGRFTISRDNAKNTVYLQMNSLKPEDTAVYYCNARQSYRYSQHGYWGQGTQLTVSS

>  <polyreactivity (PSR sort gate)>
high polyreactivity

$$$$
>  <seq-string>
QVQHVESGGGLVQAGVSLRLSCAASGFTFHRNAMGWSTQAPGKERELLAAITMKGGSSTYYADSVKGRFTISRDNAKNTVYLQMNSLKPEDTAVYYCARDSYSYTFSKNSDPAEYDYWGQGTQVTLSS

>  <polyreactivity (PSR sort gate)>
low polyreactivity

$$$$
>  <seq-string>
QVHLVESGGGLVQAGGSLRLICAASGISFLAYAMGCYRHAPRKERELVAAISTDGGSTYYADSVKGRFTISRDNAKNTVYLQMNSLKPVYTAVYYCAAKQRYVRTRGMDYWGQGTQVTVSS

>  <polyreactivity (PSR sort gate)>
high polyreactivity

$$$$
>  <seq-string>
QVQLVESGGGLVQAGGSLRLSCAASGYTFAGNAMGWYRQAAGKERELVAAISRSGGRTYYADSVKGRFTISRDNAKNTVYLQMNSLNPEDTAVYYCAAYFPRTLFEFGYWGQGTQVTVSS

>  <polyreactivity (PSR sort gate)>
high polyreactivity

$$$$
>  <seq-string>
QVQLVESGGGLVQAGGSLRLSCAASGSTFTYYAMGWYRQAPGKERELVAAISRSGGNTYYADSVKGRFTISRDNAKNTVYLQMNSLKKEDTAVYYCAAYRQVYGFDYWGQGTQVTVSS

>  <polyreactivity (PSR sort gate)>
high polyreactivity

$$$$
>  <seq-string>
QVQLVESGGGLVQAGGSLRLICAASGRTFGGYAMASYRQAPGKERELVAAITYSGSSTYYADSVKGRFTISRDNAKNTVYLQMNSLKPEDTAVYYCAARGRQTWYNYWGQGTQVTVSS

>  <polyreactivity (PSR sort gate)>
high polyreactivity

$$$$
>  <seq-string>
QVQLVESGGGLVQAGGSLRLSCAASGSTLGRYAMGWYRQAPGKERELVASITWSDDSTYYADSVKGRFTISRDNAKNTVYLQMNSLKPEDTAVYYCAAAGNLYTYRFYYWGQGTQVTVSS

>  <polyreactivity (PSR sort gate)>
low polyreactivity

$$$$

---

assay: yeast display, Sf9 membrane polyspecificity reagent, FACS + sequencing; frameworks hold sequencing errors
test-readout: polyreactivity (PSR sort gate)

>  <seq-string>
QVQLVESGGGLVQAGGILRLSCAASGRIFGPYTMGWYRQAPGKEREFVAAISRSGDSTYYADSVKGRFTISRDNAKNTVYLQMNSLKPEDTAVYYCAAKYGTRLSAYYYWGQGTQVTVSS

>  <endpoint-result>
high polyreactivity

$$$$
>  <seq-string>
QVQLVESGGGLVQAGGSLRLSCAASGRIFKTYAMGWYRQAPGKERELVAAITSGGSTYYADSVKGRFTISRDNAKNTVYLQMNSLKPEDTAVYYCNRVYRYVYSWAYNYWGQGTQVTVSS

>  <endpoint-result>
high polyreactivity

$$$$
>  <seq-string>
QVQLVESGGGLVQAGGSLRLSCAASGFIFPQYAMGWYRQAPGKERELVAAISWSGTRTYYADSVKGRFTISRDNAKNTVYLQMNSLKPEDTAVYYCAARIDRQYRWTGFGYWGQGTQVTVSS

>  <endpoint-result>
high polyreactivity

$$$$

Taken from the nanobody polyreactivity screen of Harvey et al. (2022).
